In this section we review reported shrunken log2 fold change values for a set of sequences.
# System: Escherichia coli TOP10
# TEST_NAME: shrunken log2 fold change of peptide-encoding DNA abundance (4.5 h post-induction vs induction); higher = less antimicrobial activity (less host growth inhibition)
# RECORDED_CONDITIONS: time post-induction: 4.5 h; library: site-saturation at positions 5, 18, 19, 20
I'd appreciate a reply containing only the number, no unit.

See these solved cases before continuing.
[[record]]
entry_sequence = "RRIRVRPPRLPRPRPRPWNFPRP"
recorded_measurement = -0.102

[[record]]
entry_sequence = "RRIRYRPPRLPRPRPRPEFCPRP"
recorded_measurement = -0.258

[[record]]
entry_sequence = "RRIRDRPPRLPRPRPRPQWVPRP"
recorded_measurement = -0.0468

[[record]]
entry_sequence = "RRIRHRPPRLPRPRPRPGTVPRP"
recorded_measurement = -0.139

[[record]]
entry_sequence = "RRIRPRPPRLPRPRPRPGNQPRP"
recorded_measurement = -0.143

[[record]]
entry_sequence = "RRIRSRPPRLPRPRPRPTHRPRP"
recorded_measurement = 0.0995

[[record]]
entry_sequence = "RRIRRRPPRLPRPRPRPYHTPRP"
recorded_measurement = -1.28

[[record]]
entry_sequence = "RRIRPRPPRLPRPRPRPAKDPRP"
recorded_measurement = -0.111

[[record]]
entry_sequence = "RRIRTRPPRLPRPRPRPLAIPRP"
recorded_measurement = 0.00788

[[record]]
entry_sequence = "RRIRARPPRLPRPRPRPVNCPRP"
recorded_measurement = 1.04


// field: shrunken log2 fold change; key: RRIRTRPPRLPRPRPRPTVQPRP ; value = 0.0928

The measured shrunken log2 fold change associated with RRIRYRPPRLPRPRPRPAYGPRP reads 3.33

So, RRIRLRPPRLPRPRPRPLQQPRP ? Its shrunken log2 fold change was 0.0442

Short answer for RRIRLRPPRLPRPRPRPAKMPRP : shrunken log2 fold change was -0.169

For reference, reported shrunken log2 fold change for RRIRVRPPRLPRPRPRPICIPRP stands at -0.449

* * *

# System: Escherichia coli TOP10
# TEST_NAME: shrunken log2 fold change of peptide-encoding DNA abundance (4.5 h post-induction vs induction); higher = less antimicrobial activity (less host growth inhibition)
# RECORDED_CONDITIONS: time post-induction: 4.5 h; library: site-saturation at positions 5, 18, 19, 20
Output label 1 for shrunken log2 fold change not less than -0.2; output label 0 otherwise.

Some entries whose results are on file:
[[record]]
entry_sequence = "RRIRYRPPRLPRPRPRPCYDPRP"
assigned_category = "label 0"

[[record]]
entry_sequence = "RRIRIRPPRLPRPRPRPVLPPRP"
assigned_category = "label 0"


Decide: shrunken log2 fold change of RRIRPRPPRLPRPRPRPQIHPRP >= -0.2?
label 0

Tell me whether shrunken log2 fold change is at least -0.2 here: RRIRPRPPRLPRPRPRPNSPPRP
label 0

* * *

# System: Escherichia coli TOP10
# TEST_NAME: shrunken log2 fold change of peptide-encoding DNA abundance (4.5 h post-induction vs induction); higher = less antimicrobial activity (less host growth inhibition)
# RECORDED_CONDITIONS: time post-induction: 4.5 h; library: site-saturation at positions 5, 18, 19, 20
OBSERVABLE: shrunken log2 fold change
API doc: respond with a numeric literal and nothing else, no unit.

Below, each entry is followed by its recorded shrunken log2 fold change result.
[[record]]
entry_sequence = "RRIRARPPRLPRPRPRPGSEPRP"
recorded_measurement = 0.0951

[[record]]
entry_sequence = "RRIRTRPPRLPRPRPRPNMHPRP"
recorded_measurement = 0.561

[[record]]
entry_sequence = "RRIRFRPPRLPRPRPRPCDPPRP"
recorded_measurement = -0.0886

[[record]]
entry_sequence = "RRIRSRPPRLPRPRPRPHIKPRP"
recorded_measurement = -0.255

[[record]]
entry_sequence = "RRIRRRPPRLPRPRPRPIDKPRP"
recorded_measurement = -0.0465

[[record]]
entry_sequence = "RRIRCRPPRLPRPRPRPESYPRP"
recorded_measurement = -0.336

[[record]]
entry_sequence = "RRIRVRPPRLPRPRPRPMDAPRP"
recorded_measurement = 0.0377

[[record]]
entry_sequence = "RRIRARPPRLPRPRPRPVPLPRP"
recorded_measurement = 0.263

[[record]]
entry_sequence = "RRIRIRPPRLPRPRPRPIFHPRP"
recorded_measurement = -0.411

[[record]]
entry_sequence = "RRIRIRPPRLPRPRPRPGMDPRP"
recorded_measurement = -0.295


With those in mind, consider the next sequence.
Quick note, shrunken log2 fold change for RRIRSRPPRLPRPRPRPNVDPRP landed at 0.0085

* * *

# Tested on: Escherichia coli TOP10
# TEST_NAME: shrunken log2 fold change of peptide-encoding DNA abundance (4.5 h post-induction vs induction); higher = less antimicrobial activity (less host growth inhibition)
# RECORDED_CONDITIONS: time post-induction: 4.5 h; library: site-saturation at positions 5, 18, 19, 20
Label scheme for shrunken log2 fold change: lower than -0.002 is F, -0.002 and above is T.

Would you please look over these solved cases?
[[record]]
entry_sequence = "RRIRDRPPRLPRPRPRPCMYPRP"
target_entity = "Escherichia coli TOP10"
assigned_category = "T"

[[record]]
entry_sequence = "RRIRKRPPRLPRPRPRPLANPRP"
target_entity = "Escherichia coli TOP10"
assigned_category = "T"

[[record]]
entry_sequence = "RRIRYRPPRLPRPRPRPRWFPRP"
target_entity = "Escherichia coli TOP10"
assigned_category = "F"

[[record]]
entry_sequence = "RRIRLRPPRLPRPRPRPEPNPRP"
target_entity = "Escherichia coli TOP10"
assigned_category = "T"

[[record]]
entry_sequence = "RRIRGRPPRLPRPRPRPILWPRP"
target_entity = "Escherichia coli TOP10"
assigned_category = "T"

[[record]]
entry_sequence = "RRIRCRPPRLPRPRPRPPSHPRP"
target_entity = "Escherichia coli TOP10"
assigned_category = "F"

[[record]]
entry_sequence = "RRIRDRPPRLPRPRPRPHQKPRP"
target_entity = "Escherichia coli TOP10"
assigned_category = "T"

[[record]]
entry_sequence = "RRIRERPPRLPRPRPRPDHKPRP"
target_entity = "Escherichia coli TOP10"
assigned_category = "F"

[[record]]
entry_sequence = "RRIRVRPPRLPRPRPRPNDAPRP"
target_entity = "Escherichia coli TOP10"
assigned_category = "F"

[[record]]
entry_sequence = "RRIRDRPPRLPRPRPRPTYPPRP"
target_entity = "Escherichia coli TOP10"
assigned_category = "F"


Check this sequence for shrunken log2 fold change at or above -0.002: RRIRVRPPRLPRPRPRPKPQPRP
T

Is the recorded value of shrunken log2 fold change equal to or greater than -0.002 for this sequence? RRIRQRPPRLPRPRPRPRRIPRP
F

Threshold query (shrunken log2 fold change >= -0.002) on RRIRPRPPRLPRPRPRPKLHPRP
F

Check the entry RRIRHRPPRLPRPRPRPTQWPRP : does shrunken log2 fold change equal or exceed -0.002?
T

Item RRIRPRPPRLPRPRPRPNECPRP with shrunken log2 fold change of -0.002 or above?
F

* * *

# Test system: Escherichia coli TOP10;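 further: peptides expressed intracellularly from a pBAD plasmid library in pooled LB shake-flask culture, induced with 0.3% L-arabinose, DNA abundance read by NGS, three biological replicates, DESeq2 with apeglm shrinkage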
# TEST_NAME: shrunken log2 fold change of peptide-encoding DNA abundance (4.5 h post-induction vs induction); higher = less antimicrobial activity (less host growth inhibition)
# RECORDED_CONDITIONS: time post-induction: 4.5 h; library: site-saturation at positions 5, 18, 19, 20
The threshold is inclusive: shrunken log2 fold change of exactly -0.1 counts as met; values below receive not met.

Study these solved cases before continuing.
[[record]]
entry_sequence = "RRIRYRPPRLPRPRPRPRGCPRP"
assigned_category = "not met"

[[record]]
entry_sequence = "RRIRSRPPRLPRPRPRPAYFPRP"
assigned_category = "not met"

[[record]]
entry_sequence = "RRIRYRPPRLPRPRPRPKQRPRP"
assigned_category = "not met"

[[record]]
entry_sequence = "RRIRLRPPRLPRPRPRPPSQPRP"
assigned_category = "met"


In plain terms: is recorded shrunken log2 fold change at least -0.1 for RRIRARPPRLPRPRPRPLAIPRP ?
met

Reported shrunken log2 fold change reaches at least -0.1 for RRIRMRPPRLPRPRPRPDKMPRP ?
met

Test whether the sequence RRIRERPPRLPRPRPRPPTSPRP records shrunken log2 fold change of -0.1 or higher.
met

Quick check: does RRIRFRPPRLPRPRPRPHLAPRP have shrunken log2 fold change greater than or equal to -0.1?
met

I'd appreciate it if you could say whether RRIRLRPPRLPRPRPRPYRIPRP has shrunken log2 fold change at least equal to -0.1.
not met

Textbook exercise: given the entry RRIRDRPPRLPRPRPRPSLFPRP , state whether its shrunken log2 fold change is greater than or equal to -0.1.
met

Sourced from the supplement of paper PMC9112550
